- assaySystem: T1, 4H363-bA
- T1 chain: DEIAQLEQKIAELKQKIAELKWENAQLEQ
- assaySummary: two-hybrid library CCNG1;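 also: natural log of median RNA to DNA barcode read ratio; higher means stronger binding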
testReadout: interaction score
In your answer, state the number alone without any accompanying words.

Consider the reported interaction score for these binders:
DEIAQLEQKIAELKQENAELEWKNAQLKQ [4H344-bA]; -0.443
DENAQLEQEIAELEQENAELEWKIAQLKQ [4H1046-bA]; 0.269
DKIAQLKQENAELEQKNAELKWEIAQLEQ [4H2745-bA]; -1.18
DEIAQLEQKIAELKQKIAELKWENAQLEQ [4H363-bA]; 1.08
DKIAQLKQEIAELEQKNAELKWENAQLEQ [4H2619-bA]; -0.409
DKIAQLKQEIAELEQEIAELEWKNAQLKQ [4H2568-bA]; 0.53

**Query** Provide only the value of recorded interaction score for DENAQLEQEIAELEQKIAELKWKNAQLKQ [4H1072-bA]
**Result** 1.21
